system: NCI-H226 lung; assay: NCI-60 one-dose screen, 48 h (100 = growth as untreated, 0 = no growth, -100 = all killed); settings: 10 µM unless noted
The panel holds about 83,000 compounds, 20% with a hit somewhere; the sample as a whole holds those more often.
Kindly apply the following: true (1) if growth is less than 80%, false (0) in every other case.

[[record]]
molecule = "CCCCCOc1ccc(/C=N/Nc2cc(C)nc3ccc(Cl)cc23)cc1"
label_class = "false (0)"

[[record]]
molecule = "CCC(=O)Oc1ccc(/C(=C(\\C)c2ccccc2)c2ccc(OCCN3CCCCC3)cc2)cc1"
label_class = "false (0)"

[[record]]
molecule = "NC(=O)Nc1ccc(-n2cnc3cc(-c4ccc(O)cc4)ccc32)cc1"
label_class = "false (0)"

[[record]]
molecule = "O=C(Nc1cccc(C2=NCCN2)c1)c1ccc(-c2ccc(C(=O)Nc3cccc(C4=NCCN4)c3)cc2)cc1"
label_class = "false (0)"

[[record]]
molecule = "COc1cccc(-c2nc3occn3c2-c2ccnc(NCCNS(=O)(=O)c3cccc4ccccc34)n2)c1"
label_class = "false (0)"

[[record]]
molecule = "CN[C@@H](C)C(=O)N[C@H]1CCS[C@H]2CC(C)(C)[C@@H](C(=O)N[C@H]3c4ccccc4C[C@H]3OCC#CC#CCO[C@@H]3Cc4ccccc4[C@@H]3NC(=O)[C@H]3N4C(=O)[C@@H](NC(=O)[C@H](C)NC)CCS[C@H]4CC3(C)C)N2C1=O"
label_class = "false (0)"

[[record]]
molecule = "CC1=CCC(OC(=O)C(C)(O)CCC(O)(C(=O)OC2(C)C=CC(O)(C(C)C)CC2)C(C)C)(C(C)C)CC1 (configuration not stated)"
label_class = "false (0)"

[[record]]
molecule = "O=C1Nc2ccc(F)cc2/C1=C\\c1c(-c2ccccc2)nc2ccccn12"
label_class = "false (0)"

[[record]]
molecule = "COc1ccc(OC)c(-c2cc(-c3ccc(Cl)cc3)c3c(N)c(C(=O)c4ccc(Cl)cc4)sc3n2)c1"
label_class = "false (0)"

[[record]]
molecule = "CCCCCN1C=C/C(=C\\C(=O)n2ccc3ccccc32)c2ccccc21"
label_class = "true (1)"

[[record]]
molecule = "CCOC(=O)c1cc(C(=O)c2ccc(OC)cc2)n2ccc(/C=C/c3cc[n+](CC(=O)c4ccc(OC)cc4)cc3)cc12"
label_class = "false (0)"

[[record]]
molecule = "CC(=O)O[C@@H]1C2CCC3C(CC[C@@]4(C)C3CC[C@@H]4C(C)N(C)C)[C@@]2(C)CC[C@@H]1NC(=O)C=C(C)C (some centres not stated)"
label_class = "true (1)"

[[record]]
molecule = "CCN(c1ccccc1)S(=O)(=O)c1cc([N+](=O)[O-])ccc1Cl"
label_class = "true (1)"

[[record]]
molecule = "CCc1c2c(nc3ccc(OCc4ccc(B(O)O)cc4)cc13)-c1cc3c(c(=O)n1C2)COC(=O)[C@]3(O)CC"
label_class = "true (1)"

[[record]]
molecule = "Nc1nc(Nc2ccccc2SSc2ccccc2Nc2nc(N)nc(-c3cccs3)n2)nc(-c2ccsc2)n1"
label_class = "false (0)"

